All values here come from paper PMC4081100.

# System name: GST-ANAC055(1-171) (Arabidopsis thaliana, UniProt Q9LDY8 1-171)
# Sequence: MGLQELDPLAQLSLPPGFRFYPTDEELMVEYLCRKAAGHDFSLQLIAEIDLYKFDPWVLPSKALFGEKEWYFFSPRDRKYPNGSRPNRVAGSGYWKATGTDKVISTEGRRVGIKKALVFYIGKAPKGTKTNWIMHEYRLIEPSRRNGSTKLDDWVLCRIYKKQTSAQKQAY
# Procedure summary: universal protein binding microarray (PBM); high values mean tight binding
# Condition set: protein: recombinant; tags: GST; chain copies: 2; dsDNA, one strand shown
# binding signal listing for each entry below

Seq string: CCCCACCC
binding signal (E-score): 0.0515
//
Seq string: TGGAGTAA
binding signal (E-score): 0.128
//
Seq string: AAGTAATA
binding signal (E-score): 0.215
//
Seq string: ACTTAACC
binding signal (E-score): 0.115
//
Seq string: ATGACGTA
binding signal (E-score): 0.346
//
Seq string: TATCGTAA
binding signal (E-score): 0.0984
//
Seq string: AACGTAAA
binding signal (E-score): 0.241
//
Seq string: AAAAGTCA
binding signal (E-score): 0.157
//
Seq string: AAAGTCTT
binding signal (E-score): 0.109
//
Seq string: AGACGTGA
binding signal (E-score): 0.368
//
Seq string: AATTACGT
binding signal (E-score): 0.446
//
Seq string: AACGTAGA
binding signal (E-score): 0.226
//
Seq string: TCGCGTAA
binding signal (E-score): 0.0885
//
Seq string: TACAGTCA
binding signal (E-score): 0.0559
//
Seq string: GTCAACAA
binding signal (E-score): 0.163
//
Seq string: CGTACACG
binding signal (E-score): 0.287
//
Seq string: ATTCCTTA
binding signal (E-score): 0.114
//
Seq string: ATAAGGAA
binding signal (E-score): 0.0899
//
Seq string: ATACGGCA
binding signal (E-score): 0.353
//
Seq string: AGGGAAAA
binding signal (E-score): 0.111
//
Seq string: GGTTTGAC
binding signal (E-score): 0.162
//
Seq string: CACGTTAC
binding signal (E-score): 0.293
//
Seq string: CTAGTCAA
binding signal (E-score): 0.171
//
Seq string: CACGGCAG
binding signal (E-score): 0.403
//
Seq string: ACGTTACA
binding signal (E-score): 0.157
//
Seq string: ATGGCGTG
binding signal (E-score): 0.138
//
Seq string: GTCAAAGA
binding signal (E-score): 0.078
//
Seq string: CACTCAAC
binding signal (E-score): 0.139
//
Seq string: AACACGTC
binding signal (E-score): 0.325
//
Seq string: GACGTCAA
binding signal (E-score): 0.0759
//
Seq string: GTACGGCA
binding signal (E-score): 0.362
//
Seq string: AAGAAACC
binding signal (E-score): 0.135
//
Seq string: AGAGGTAA
binding signal (E-score): 0.0996
//
Seq string: AACACGCT
binding signal (E-score): 0.236
//
Seq string: TACACGTA
binding signal (E-score): 0.361
//
Seq string: TGCACGCA
binding signal (E-score): 0.255
//
Seq string: GTTTGACA
binding signal (E-score): 0.0647
//
Seq string: AAATTGAC
binding signal (E-score): 0.213
//
Seq string: GCAAGGAA
binding signal (E-score): 0.211
//
Seq string: ATGCCGTA
binding signal (E-score): 0.355
//
Seq string: ACGCAAGA
binding signal (E-score): 0.264
//
Seq string: ATTACTTC
binding signal (E-score): 0.223
//
Seq string: AAGCAACC
binding signal (E-score): 0.0668
//
Seq string: GCACGAAA
binding signal (E-score): 0.197
//
Seq string: GTACGTCA
binding signal (E-score): 0.295
//
Seq string: AAGCAACA
binding signal (E-score): 0.134

====

# Lookup of reported binding signal keyed by entry
# System name: GST-NST2(1-184) (Arabidopsis thaliana, UniProt Q9M274 1-184)
# Sequence: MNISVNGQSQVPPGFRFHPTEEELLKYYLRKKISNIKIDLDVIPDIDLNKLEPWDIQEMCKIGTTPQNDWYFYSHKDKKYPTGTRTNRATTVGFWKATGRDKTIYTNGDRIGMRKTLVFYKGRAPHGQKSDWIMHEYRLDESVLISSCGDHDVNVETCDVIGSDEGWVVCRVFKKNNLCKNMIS
# Procedure summary: universal protein binding microarray (PBM); transcription factors of Arabidopsis thaliana; high values mean tight binding
# Condition set: protein: recombinant; tags: GST; chain copies: 2; dsDNA, one strand shown
Measurement label: binding signal (E-score)

Seq string: AAAAGTCA
Measurement label: binding signal
Reported measurement: 0.274
--
Seq string: CGTGCACG
Measurement label: binding signal
Reported measurement: 0.221
--
Seq string: AAGACCAA
Measurement label: binding signal
Reported measurement: 0.18
--
Seq string: GTACGAAA
Measurement label: binding signal
Reported measurement: 0.285
--
Seq string: GTCAAGAA
Measurement label: binding signal
Reported measurement: 0.0986
--
Seq string: ACGTAAGT
Measurement label: binding signal
Reported measurement: 0.233
--
Seq string: ACGCAACG
Measurement label: binding signal
Reported measurement: 0.3
--
Seq string: ACGTTTCC
Measurement label: binding signal
Reported measurement: 0.255
--
Seq string: GACACGCA
Measurement label: binding signal
Reported measurement: 0.0949
--
Seq string: TACGCCAA
Measurement label: binding signal
Reported measurement: 0.251
--
Seq string: GTCGCGTA
Measurement label: binding signal
Reported measurement: 0.109
--
Seq string: ATTCCGTG
Measurement label: binding signal
Reported measurement: 0.251
--
Seq string: CAAGCAAG
Measurement label: binding signal
Reported measurement: 0.265
--
Seq string: CTAACGTA
Measurement label: binding signal
Reported measurement: 0.277
--
Seq string: ACTCAACC
Measurement label: binding signal
Reported measurement: 0.221
--
Seq string: AGACGTAA
Measurement label: binding signal
Reported measurement: 0.282
--
Seq string: CTTTCTTC
Measurement label: binding signal
Reported measurement: 0.0636
--
Seq string: CTACGCCA
Measurement label: binding signal
Reported measurement: 0.147
--
Seq string: ACGCTACT
Measurement label: binding signal
Reported measurement: 0.314
--
Seq string: ACAAGTAA
Measurement label: binding signal
Reported measurement: 0.288
--
Seq string: AAGTAATC
Measurement label: binding signal
Reported measurement: 0.285
--
Seq string: CACGTAAC
Measurement label: binding signal
Reported measurement: 0.279
--
Seq string: GCACGCTA
Measurement label: binding signal
Reported measurement: 0.173
--
Seq string: TCACGTAA
Measurement label: binding signal
Reported measurement: 0.269
--
Seq string: AGGAAACT
Measurement label: binding signal
Reported measurement: 0.125
--
Seq string: ATTGCTTG
Measurement label: binding signal
Reported measurement: 0.296
--
Seq string: ATGGCGTA
Measurement label: binding signal
Reported measurement: 0.299
--
Seq string: ATTACGTG
Measurement label: binding signal
Reported measurement: 0.296
--
Seq string: AAATTGAC
Measurement label: binding signal
Reported measurement: 0.194
--
Seq string: ACACGCTA
Measurement label: binding signal
Reported measurement: 0.4
--
Seq string: GCTAAGCA
Measurement label: binding signal
Reported measurement: 0.0614
--
Seq string: CGTTTGAC
Measurement label: binding signal
Reported measurement: 0.0861
--
Seq string: CACGTAAA
Measurement label: binding signal
Reported measurement: 0.293
--
Seq string: CTTGCTTC
Measurement label: binding signal
Reported measurement: 0.204
--
Seq string: GAAGGAAA
Measurement label: binding signal
Reported measurement: 0.214
--
Seq string: CTTGACTA
Measurement label: binding signal
Reported measurement: 0.0888
--
Seq string: GAAGGGAA
Measurement label: binding signal
Reported measurement: 0.0954
--
Seq string: AACACGCT
Measurement label: binding signal
Reported measurement: 0.3
--
Seq string: TGAAGAAA
Measurement label: binding signal
Reported measurement: 0.241
--
Seq string: GTTACGCA
Measurement label: binding signal
Reported measurement: 0.219
--
Seq string: ACTTGACT
Measurement label: binding signal
Reported measurement: 0.0742
--
Seq string: ACGCCACG
Measurement label: binding signal
Reported measurement: 0.128
--
Seq string: GACGTAAC
Measurement label: binding signal
Reported measurement: 0.24
--
Seq string: CACGGAAC
Measurement label: binding signal
Reported measurement: 0.175
--
Seq string: ACGCATCC
Measurement label: binding signal
Reported measurement: 0.173
--
Seq string: TGAAGTCA
Measurement label: binding signal
Reported measurement: 0.0789
